Tested on: TEAD transcriptional activity
ASSAY_COMMENT: Inhibition of TEAD-driven transcription (8×GTIIC-luciferase reporter assay)
Format: cell-based
EXPERIMENTAL_CONDITIONS: 40 μM at 24 hour treatment
Item-by-item account of inhibition at 40 µM
Please respond with the number in % and leave the unit unwritten.

> print(dat)
                                   molecule  endpoint.unit  measurement
1  C=CC(=O)N1CC[C@H](Nc2cccc(N3CCN(C)CC3)c2)C1 [Compound I-49]              %           50
2  C=CC(=O)N1CC[C@H](Nc2cc(C(F)(F)F)ccc2Cl)C1 [Compound I-51]              %           90
3  C=CC(=O)N1CCC[C@H](Nc2cccc(C(F)(F)F)c2)C1 [Compound I-15]              %           70
4  O=C(CCl)N1CCC[C@@H](Nc2cccc(C(F)(F)F)c2)C1 [Compound I-2]              %           50
5  O=C(CCl)N1CCCC(Nc2cccc(C(F)(F)F)c2)C1 (stereo not drawn) [Compound I-19]              %           50
6  C=CC(=O)N1CC[C@H](Nc2cc(Cl)cc(C(F)(F)F)c2)C1 [Compound I-52]              %           70

Q: Determine from records and report inhibition at 40 µM for C=CC(=O)N1CC[C@H](Nc2cccc(C(F)(F)F)c2C)C1 [Compound I-57]
Ans: 70

Q: Determine from records and report inhibition at 40 µM for C=CC(=O)N1CC[C@H](Oc2cccc(C(F)(F)F)c2)C1 [Compound I-58]
Ans: 70

Q: Determine from records and report inhibition at 40 µM for C=CC(=O)N1CC[C@H](Nc2cncc(C(F)(F)F)c2)C1 [Compound I-61]
Ans: 50

###

System: TEAD transcriptional activity
ASSAY_COMMENT: Inhibition of TEAD-driven transcription (8×GTIIC-luciferase reporter assay)
Format: cell-based
EXPERIMENTAL_CONDITIONS: 40 μM at 24 hour treatment
Item-by-item account of inhibition at 40 µM
Please respond with the number in % and leave the unit unwritten.

Example entries begin here.
> print(dat)
                                   compound              measure  measurement
1  O=C(CCl)N1CCC[C@H](Nc2cccc(C(F)(F)F)c2)C1  inhibition at 40 µM           70
2  C=CC(=O)N1C[C@@H](O)[C@H](Nc2cccc(C(F)(F)F)c2)C1  inhibition at 40 µM           70
3  C=CC(=O)N1CC[C@H](Nc2cccc(C(F)(F)F)c2N)C1  inhibition at 40 µM           90

Q: Determine from records and report inhibition at 40 µM for CN(C)C/C=C/C(=O)N1CC[C@H](Nc2cccc(C(F)(F)F)c2)C1
Ans: 50

Q: Determine from records and report inhibition at 40 µM for O=C(CCl)Nc1ccccc1Nc1cccc(C(F)(F)F)c1
Ans: 90

Q: Determine from records and report inhibition at 40 µM for C#Cc1cc(N[C@@H]2CCCN(C(=O)CCl)C2)cc(C(F)(F)F)c1
Ans: 50

Q: Determine from records and report inhibition at 40 µM for C=CC(=O)N1CCC[C@@H](Nc2cccc(C(F)(F)F)c2)C1
Ans: 50

Q: Determine from records and report inhibition at 40 µM for C=CC(=O)N1CCC(Nc2cccc(C(F)(F)F)c2)C1 (stereo not drawn)
Ans: 90

Q: Determine from records and report inhibition at 40 µM for C=CC(=O)N1CC[C@H](Nc2cc(C(F)(F)F)ccc2OC)C1
Ans: 50
